For reference, pIC50 measured on mTOR (Homo sapiens):
Just the number, please; pIC50 means minus log10 of the concentration in mol/L.

Cc1nc(Nc2cccnn2)cc(-c2c(Nc3ccn(C)n3)nc3cccnn23)n1 : 6.36
Cc1nc(N)nc(-c2c(Nc3ccn(C(=O)Nc4ccccc4)n3)nc3ccccn23)n1 : 7.05
Cc1nc(Nc2ccccc2F)cc(-c2c(Nc3cc[nH]n3)nc3cccnn23)n1 : 5.21
Cc1nc(N)cc(-c2c(Nc3ccn(C(=O)Nc4cc(F)cc(F)c4)n3)nc3cccnn23)n1 : 7.10
Cc1nc(N)nc(-c2c(Nc3cc[nH]n3)nc3ccc(-c4ccoc4)cn23)n1 : 7.85
CNC(=O)c1ccc(-c2ccc3nc(Nc4cc[nH]n4)c(-c4nc(C)nc(N)n4)n3c2)cc1F : 8.40
Cc1nc(NCC#N)cc(-c2c(Nc3cc[nH]n3)nc3cccnn23)n1 : 7.52
Cc1nc(N)cc(-c2c(Nc3cc[nH]n3)nc3cccnn23)n1 : 7.96

Here is another molecule to look at.
Ask: Hello, I am looking for reported pIC50 with mTOR (Homo sapiens) for `Cc1nc(N)cc(-n2nc(C(=O)N3CCOCC3)cc2Nc2ccn[nH]2)n1` . Could you help?
Result: 7.00
